Tested on: Human alphaherpesvirus 2
protocolText: Antiviral activity against Herpes simplex virus 2 infected in african green monkey Vero cells assessed as maximal nontoxic dose that showed the highest viral reduction factor after 48 hrs by end-point titration technique
Format: functional
quantityName: Activity

CC1(C)CCC[C@@]2(C)[C@H]1CC[C@H]1CC(=O)[C@]3(C)CC[C@]12C3 = 14 µg/mL
COC(=O)CC(=O)O[C@@H]1C[C@@H]2[C@@H](OC(C)=O)C[C@H]3C(C)(C)CCC[C@]3(C)[C@]23CC[C@]1(C)C3 [METHYL THYRSIFLORIN B ACETATE] = 15 µg/mL

Shifting focus to the compound that follows.
[Q] Output reported Activity of the compound CC1(C)CCC[C@@]2(C)[C@H]1CC[C@@]13CC(=O)[C@]4(C)CC1[C@]32C4 on Human alphaherpesvirus 2.
[A] 20 µg/mL

====

Tested on: Vero
protocolText: Cytotoxicity against african green monkey Vero cells by end-point titration technique
Assay type: cell-based
conditionLabel: chlorocebus sabaeus
For each record, write down the corresponding CC100.
Be sure to follow the number with its unit.

Some solved entries appear below for comparison.
CC1(C)CCC[C@@]2(C)[C@H]1C[C@@H](O)C1=CC(=O)[C@]3(C)CC[C@]12C3 = 28 µg/mL
CC(=O)O[C@H]1C[C@H]2C(C)(C)CCC[C@]2(C)[C@@]23CC[C@](C)(C2)[C@H](OC(C)=O)C[C@H]13 [THYRSIFLORIN C DIACETATE] = 50 µg/mL
CC(=O)O[C@H]1C[C@H]2C(C)(C)CCC[C@]2(C)[C@@]23CC[C@](C)(C2)[C@@H](O)C[C@H]13 = 50 µg/mL

Now look at this entry.
[Q] Report CC100, nothing else, for this compound: CC1(C)CCC[C@@]2(C)[C@H]1C[C@H](O)[C@H]1C[C@@H](O)[C@]3(C)CC[C@]12C3 [THYRSIFLORIN C]
[A] 30 µg/mL

====

System: Vero
protocolText: Cytotoxicity against african green monkey Vero cells by end-point titration technique
Assay type: cell-based
conditionLabel: chlorocebus sabaeus
Task for the reader: assign each of the following molecules its reported CC100.
Answers are plain numbers, in µg/mL.

Recorded CC100, per entry:
CC1(C)CCC[C@@]2(C)[C@H]1CCC1=CC(=O)[C@@]3(C)C[C@@]12CC3=O = 60
CC1(C)CCC[C@@]2(C)[C@H]1CC[C@@]13CC(=O)[C@]4(C)CC1[C@]32C4 = 40
COC(=O)CC(=O)O[C@@H]1C[C@@H]2CC[C@H]3C(C)(C)CCC[C@]3(C)[C@]23CC[C@]1(C)C3 = 30
CC1(C)CCC[C@@]2(C)[C@H]1CCC1=CC(=O)[C@]3(C)CC[C@]12C3 = 40

Batch of 3 molecules: report CC100 for each.
1. CC1(C)CCC[C@@]2(C)[C@H]1C[C@@H](O)[C@@H]1CC(=O)[C@]3(C)CC[C@]12C3
2. CC1(C)CCC[C@@]2(C)[C@H]1CC[C@H]1C[C@@H](O)[C@]3(C)CC[C@]12C3
3. COC(=O)CC(=O)O[C@@H]1C[C@@H]2[C@@H](OC(C)=O)C[C@H]3C(C)(C)CCC[C@]3(C)[C@]23CC[C@]1(C)C3 [METHYL THYRSIFLORIN B ACETATE]

[A]
60
32
30
